From: the supplement of paper PMC7877785

Recorded measurements of self-splicing fitness (ln), one per entry
experiment.description: self-splicing fitness, log relative to wild type (ln ratio); higher = more splicing; Tetrahymena group I intron in knt gene, E. coli kanamycin selection, DiMSum; sequences stand for … in CUCUCU…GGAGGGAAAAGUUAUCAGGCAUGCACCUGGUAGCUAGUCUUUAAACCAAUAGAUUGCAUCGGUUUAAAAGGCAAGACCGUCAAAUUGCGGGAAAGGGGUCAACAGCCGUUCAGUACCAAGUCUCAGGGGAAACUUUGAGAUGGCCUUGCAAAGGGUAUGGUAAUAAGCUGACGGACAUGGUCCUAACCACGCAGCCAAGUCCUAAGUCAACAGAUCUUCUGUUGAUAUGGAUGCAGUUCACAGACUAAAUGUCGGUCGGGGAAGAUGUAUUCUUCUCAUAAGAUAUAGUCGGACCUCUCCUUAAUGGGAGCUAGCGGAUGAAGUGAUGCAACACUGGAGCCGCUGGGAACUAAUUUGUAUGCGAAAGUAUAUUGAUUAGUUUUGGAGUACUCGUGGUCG;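 also: selection with 25 µg/mL kanamycin versus none on LB agar overnight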
measurement.parameters: 30 °C
measure: self-splicing fitness (ln)

1. UUAUAGCAAUAUUACGGGCA ... -2.37
2. AGCUAGCAAUAUUACGGACG ... -0.719
3. CCGCAGCAAUAUUACGGGCC ... -2.9
4. CCAUAGCAAUAUUACGCGUC ... -3.04
5. UAAUAGCAAUAUUACGGAUG ... -1.58
6. AUGGAGCAAUAUUACGGCUC ... -2.53
7. UAUUAGCAAUAUUACGUGAU ... -2.82
8. UGAAAGCAAUAUUACGCGGC ... -3.44

====

Recorded measurements of self-splicing fitness (ln), one per entry
experiment.description: self-splicing fitness, log relative to wild type (ln ratio); higher = more splicing; Tetrahymena group I intron in knt gene, E. coli kanamycin selection, DiMSum; sequences stand for … in CUCUCU…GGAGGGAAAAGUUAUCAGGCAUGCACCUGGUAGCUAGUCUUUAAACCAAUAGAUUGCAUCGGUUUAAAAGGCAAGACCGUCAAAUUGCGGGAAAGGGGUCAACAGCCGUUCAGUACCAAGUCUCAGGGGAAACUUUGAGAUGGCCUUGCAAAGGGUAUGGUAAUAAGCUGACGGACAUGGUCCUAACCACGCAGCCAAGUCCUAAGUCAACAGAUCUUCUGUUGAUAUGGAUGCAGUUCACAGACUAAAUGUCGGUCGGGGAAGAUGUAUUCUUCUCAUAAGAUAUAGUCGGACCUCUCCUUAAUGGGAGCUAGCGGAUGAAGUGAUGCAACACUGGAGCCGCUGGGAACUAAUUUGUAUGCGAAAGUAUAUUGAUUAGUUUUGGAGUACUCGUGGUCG
measurement.parameters: 37 °C
measure: self-splicing fitness (ln)

1) AUAUAGCAAUAUUACGUUGG ... -2.04
2) UUGUAGCAAUAUUACGAGAA ... -1.42
3) CAGAAGCAAUAUUACGAAAA ... -2.65
4) UUAUAGCAAUAUUACGCGUC ... -1.11
5) GCUAAGCAAUAUUACGCACU ... 0.421
6) ACGGAGCAAUAUUACGGCGU ... -1.48
7) CAUAAGCAAUAUUACGCGUA ... -2.02
8) CCAUAGCAAUAUUACGGCUU ... -2.19
9) AGCAAGCAAUAUUACGCCGC ... -2.68
10) CUUCAGCAAUAUUACGAGGG ... -2.31
11) GCAAAGCAAUAUUACGAGCU ... -1.5
12) ACAGAGCAAUAUUACGUUCU ... -3.29
13) UAGGAGCAAUAUUACGCCUA ... -3.02
14) CUAAAGCAAUAUUACGCCGU ... -2.39
15) CUUUAGCAAUAUUACGGCAG ... -0.552
16) CGCUAGCAAUAUUACGGGAG ... -1.43
17) AUCUAGCAAUAUUACGUCAA ... -1.68
18) CAGAAGCAAUAUUACGAGUA ... -1.66
19) GAGUAGCAAUAUUACGGCUA ... -1.37
20) CUGCAGCAAUAUUACGUAAA ... -1.19
21) CCCGAGCAAUAUUACGUUCA ... -2.99
22) CUUUAGCAAUAUUACGUCGA ... -1.96
23) UAGGAGCAAUAUUACGUGCG ... -0.951
24) CGUCAGCAAUAUUACGCUUA ... -1.14
25) AGAAAGCAAUAUUACGUGUU ... -1.99
26) AAAAAGCAAUAUUACGGCAA ... 0.328
27) UGAUAGCAAUAUUACGUUUU ... -1.85
28) CUCAAGCAAUAUUACGGCUU ... -2.65
29) CCUUAGCAAUAUUACGAUGA ... -1.71
30) UGUAAGCAAUAUUACGGUCU ... -0.33
31) ACCAAGCAAUAUUACGGGCC ... -2.07
32) GGUAAGCAAUAUUACGUGGA ... -2.52
33) CACGAGCAAUAUUACGGAUG ... -2.47
34) GUGUAGCAAUAUUACGUCCU ... -0.148
35) GUGUAGCAAUAUUACGGAAA ... -1.42
36) UCUCAGCAAUAUUACGAAUU ... -1.77
37) GUACAGCAAUAUUACGUGAA ... -1.51
38) UUUUAGCAAUAUUACGCUAC ... -2.79
39) UAGUAGCAAUAUUACGUCUA ... 0.659
40) AAGAAGCAAUAUUACGGGUC ... -1.69
41) AGCGAGCAAUAUUACGCCCA ... -1.52
42) CGAUAGCAAUAUUACGCUGC ... -2.21
43) AGCGAGCAAUAUUACGCUCU ... -2.61
44) UCGAAGCAAUAUUACGCUAU ... -3.36
45) AGCAAGCAAUAUUACGGCUG ... -1.4
46) CCAUAGCAAUAUUACGUAUU ... -2.64
47) CGAGAGCAAUAUUACGCGGU ... -2.4
48) CGAUAGCAAUAUUACGAAAU ... -2.5
49) AAAAAGCAAUAUUACGCCUU ... 0.151
50) ACGAAGCAAUAUUACGGAAG ... -2.4
51) AACCAGCAAUAUUACGGCCG ... -0.223
52) CACUAGCAAUAUUACGACUU ... -0.517
53) CUUUAGCAAUAUUACGGUAU ... -2.4
54) AGUAAGCAAUAUUACGGAAU ... -1.5
55) GUUCAGCAAUAUUACGUAGC ... -0.0432
56) CAGGAGCAAUAUUACGACCU ... -0.563
57) UUUGAGCAAUAUUACGAGGA ... -3.55
58) CGUAAGCAAUAUUACGUGGA ... -2.44
59) GGACAGCAAUAUUACGGUAU ... -0.343
60) AUCUAGCAAUAUUACGCGAG ... -0.183
61) AUCGAGCAAUAUUACGGGUC ... -3.15
62) CUCGAGCAAUAUUACGCCAA ... -2.04
63) GGUUAGCAAUAUUACGGAGC ... -1.43
64) AUACAGCAAUAUUACGCGCU ... 0.0173
65) GGACAGCAAUAUUACGAGCU ... 0.191
66) UAAUAGCAAUAUUACGGGUA ... -0.433
67) CAAAAGCAAUAUUACGCAGU ... -3.64

====

experiment.description: self-splicing fitness, log relative to wild type (ln ratio); higher = more splicing; Tetrahymena group I intron in knt gene, E. coli kanamycin selection, DiMSum; sequences stand for … in CUCUCU…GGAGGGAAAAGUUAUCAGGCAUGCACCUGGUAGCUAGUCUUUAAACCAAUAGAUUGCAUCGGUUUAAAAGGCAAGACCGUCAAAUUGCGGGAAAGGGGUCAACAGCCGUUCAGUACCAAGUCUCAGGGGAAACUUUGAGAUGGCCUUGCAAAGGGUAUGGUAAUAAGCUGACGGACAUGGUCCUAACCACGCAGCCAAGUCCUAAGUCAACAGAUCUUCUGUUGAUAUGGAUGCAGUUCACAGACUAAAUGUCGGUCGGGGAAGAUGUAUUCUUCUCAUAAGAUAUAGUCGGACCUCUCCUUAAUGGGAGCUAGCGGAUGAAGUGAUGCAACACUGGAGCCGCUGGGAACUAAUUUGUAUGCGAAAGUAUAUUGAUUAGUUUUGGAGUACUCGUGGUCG
measurement.parameters: 30 °C
Recorded measurements of self-splicing fitness (ln), one per entry
measure: self-splicing fitness (ln)

1) UCUUAGCAAUAUUACGAAGG ... -2
2) AAAUAGCAAUAUUACGUCAC ... -4.4
3) UAGAAGCAAUAUUACGCUGU ... -3.73
4) GCGCAGCAAUAUUACGAGCU ... -3.19
5) AUCAAGCAAUAUUACGCAGU ... -2.61
6) CAUCAGCAAUAUUACGCCCC ... -1.56
7) UCCCAGCAAUAUUACGCUGG ... -3.94
8) AUCAAGCAAUAUUACGGGGG ... -3.79
9) UGAUAGCAAUAUUACGUUUU ... -3.75
10) UUUUAGCAAUAUUACGUUUG ... -1.6
11) UAAAAGCAAUAUUACGACUG ... 0.248
12) UAUCAGCAAUAUUACGGCAG ... -0.148
13) GCGGAGCAAUAUUACGGUAA ... -3.29
14) UUAAAGCAAUAUUACGAGGU ... -4.09
15) AGAUAGCAAUAUUACGCAUU ... -2.76
16) AAAGAGCAAUAUUACGCUUA ... -2.74
17) GUCCAGCAAUAUUACGAGAU ... -2.92
18) GCCUAGCAAUAUUACGGGAC ... -2.4
19) ACGCAGCAAUAUUACGAUAA ... -2.84
20) CCAAAGCAAUAUUACGGUCC ... -4.23
21) ACGUAGCAAUAUUACGUUUA ... -2.63
22) GGACAGCAAUAUUACGAAGA ... -2.27
23) GAGUAGCAAUAUUACGAUAA ... -2.41
24) ACCCAGCAAUAUUACGACUC ... -0.5
25) CCCUAGCAAUAUUACGGACA ... -2.94
26) GCCAAGCAAUAUUACGAUUA ... -2.86
27) CUCAAGCAAUAUUACGACUG ... -3.48
28) UUUGAGCAAUAUUACGGGAG ... -3.55
29) AUCUAGCAAUAUUACGUAGA ... -2.39
30) AUUAAGCAAUAUUACGACGA ... -0.668
31) UUCCAGCAAUAUUACGACGU ... -2.06
32) CCCAAGCAAUAUUACGAACG ... -3.72
33) GACGAGCAAUAUUACGUCGA ... -1.82
34) ACAUAGCAAUAUUACGAUAA ... -2.16
35) GAUUAGCAAUAUUACGACAG ... -3.57
36) CGUAAGCAAUAUUACGACUG ... -0.564
37) CGCAAGCAAUAUUACGGUUC ... -4.01
38) ACACAGCAAUAUUACGAUGU ... -3.46
39) CCCGAGCAAUAUUACGGACA ... -2.72
40) AAACAGCAAUAUUACGGAGA ... -2.87
41) ACCCAGCAAUAUUACGGCGA ... -0.786
42) UGGAAGCAAUAUUACGCAAU ... -1.81
43) GAACAGCAAUAUUACGUUCU ... -3.36
44) GCAUAGCAAUAUUACGACAC ... 0.147
45) CGUGAGCAAUAUUACGUCAA ... -2.01
46) CGUUAGCAAUAUUACGCGUG ... -1.3
47) CCUUAGCAAUAUUACGUAAG ... -1.28
48) CAGCAGCAAUAUUACGGCUA ... -0.235
49) UGCAAGCAAUAUUACGGUGU ... -3.9
50) UCCCAGCAAUAUUACGAGCU ... -3.05
51) CCCUAGCAAUAUUACGUGAU ... -2.33
52) CCAUAGCAAUAUUACGAUCC ... -3.2
53) AAUGAGCAAUAUUACGCUGG ... -3.22
54) CAUUAGCAAUAUUACGCUUC ... -2.28
55) UCGUAGCAAUAUUACGCGUU ... -2.91
56) CUACAGCAAUAUUACGUUUC ... -3.69
57) ACUAAGCAAUAUUACGCGAU ... -2.98
58) UUCCAGCAAUAUUACGAUGU ... -3.24
59) GGCUAGCAAUAUUACGAUCC ... 0.227
60) UGCCAGCAAUAUUACGGUCA ... -0.926
61) CUCUAGCAAUAUUACGAAAG ... -2.34
62) ACCCAGCAAUAUUACGCUGC ... -3.77
63) GGUCAGCAAUAUUACGUAGU ... -0.367
64) CGGGAGCAAUAUUACGAACG ... -4.35
65) AGUGAGCAAUAUUACGGCGG ... -1.83
66) UUAUAGCAAUAUUACGCUUU ... -2.99
67) ACGAAGCAAUAUUACGAGAA ... -1.6
